# assay.target: MSLN抗原 (Mesothelin, MSLN-Biotin) (human) (UniProt Q13421)
# protocol.description: BLI (Octet RED96), MSLN-Biotin on AR2G sensor, TG1 periplasmic scFv as analyte
measured.metric: koff (s⁻¹)
Only the number, expressed in s⁻¹, is required.

Inquiry: Endpoint output: koff of 4D7 (scFv, V domains shown) VH: QVQLQQPGAELVKPGASMKLSCKASGYTFTSYWMHWVKQRPGQGLEWIGMIHPNSDNTIYYEKFKSKATLTVDKSSSTAYMQLSSLTSEDSAVYYCAITISPVVPKFDYWGQGTTLTVSS VL: DIVMTQSHQFMSTSVGDRVSVTCKASHDVGTSVAWYQQKPGQSPKLLIYWASTRHTGVPDRFTGSGSGTDFTLTISNVQSEDLADYFCQQYSSYPLTFGAGTKLELK . Value?
Reply text: 0.000321

Inquiry: Endpoint output: koff of 3E12 (scFv, V domains shown) VH: QVQLQQPGAELVKPGASMKLSCKASGYTFTSYWMHWVKQRPGQGLEWIGMINLVSSRTIYYEKFKSKATLTVDKSSSTAYMQLSSLTSEDSAVYYCAIIITPVVPKFDYWGQGTTLTVSS VL: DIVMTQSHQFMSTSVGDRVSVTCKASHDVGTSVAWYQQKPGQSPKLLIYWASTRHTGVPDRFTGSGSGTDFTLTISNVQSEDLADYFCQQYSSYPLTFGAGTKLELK . Value?
Reply text: 9.73e-05
